assayed_system: human DPP-IV (Homo sapiens, UniProt P27487)
Construct: Human DPP-IV consisting of amino acids 39 to 766 followed by a C-terminal Streptavidin-tag; Streptavidin-tag (C)
Sequence (P27487 39-766): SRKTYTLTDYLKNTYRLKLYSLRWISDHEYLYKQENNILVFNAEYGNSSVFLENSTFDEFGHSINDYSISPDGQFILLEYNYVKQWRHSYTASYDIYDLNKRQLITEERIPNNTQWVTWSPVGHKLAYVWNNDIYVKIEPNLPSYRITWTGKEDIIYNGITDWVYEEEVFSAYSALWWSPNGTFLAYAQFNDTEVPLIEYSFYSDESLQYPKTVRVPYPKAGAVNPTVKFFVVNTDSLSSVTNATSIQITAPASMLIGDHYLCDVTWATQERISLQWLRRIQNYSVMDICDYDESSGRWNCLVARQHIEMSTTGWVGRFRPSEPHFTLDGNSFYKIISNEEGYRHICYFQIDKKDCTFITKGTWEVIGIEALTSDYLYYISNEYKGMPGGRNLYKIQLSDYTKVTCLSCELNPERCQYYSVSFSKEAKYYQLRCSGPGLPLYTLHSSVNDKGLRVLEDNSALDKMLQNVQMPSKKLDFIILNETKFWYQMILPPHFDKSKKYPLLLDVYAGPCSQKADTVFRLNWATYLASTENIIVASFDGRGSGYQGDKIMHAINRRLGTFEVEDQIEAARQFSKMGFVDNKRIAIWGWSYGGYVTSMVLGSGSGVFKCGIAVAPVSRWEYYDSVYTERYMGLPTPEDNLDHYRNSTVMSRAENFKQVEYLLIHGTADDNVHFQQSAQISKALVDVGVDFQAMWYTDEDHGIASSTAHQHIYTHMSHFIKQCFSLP
experiment: DPP-IV inhibitory activity assay, fluorogenic substrate H-Gly-Pro-AMC
test_conditions: recombinant human DPP-IV (aa 39-766), substrate H-Gly-Pro-AMC 10 μM, room temperature, 1 hour; read-out: IC50 (inhibitory activity to human DPP-4)
pIC50: −log10 of the molar value.
readout_kind: pIC50

NCc1cc2ncc(-c3ccc(F)c(F)c3)n2cc1-c1ccc(Cl)cc1Cl: 7.64
COCCN(C)c1cnc2cc(CN)c(-c3ccc(Cl)cc3Cl)cn12: 7.64
NCc1cc2ncc(C(=O)N3CCOCC3)n2cc1-c1ccc(Cl)cc1Cl [Compound 27a]: 7.66
CN1CCC(C(=O)Nc2nnc3cc(CN)c(-c4ccc(Cl)cc4Cl)cn23)CC1 [Compound 18b]: 7.60
